tested on: Escherichia coli; assay: Antibacterial activity against Escherichia coli MTCC 739 by serial dilution method; type: functional; parameters: scale not given here
Exercise: for every item that follows, state its recorded -logMIC.
One number for each entry.

CHEMICAL STRING: COc1ccc(C(=O)N(CCO)CCO)cc1OC
-logMIC: 1.21
//
CHEMICAL STRING: COc1ccc(C(=O)Nc2ccccc2Cl)cc1OC
-logMIC: 1.23
//
CHEMICAL STRING: COc1ccc(C(=O)Nc2ccccc2)cc1OC
-logMIC: 1.04
//
CHEMICAL STRING: COc1ccc(C(=O)Nc2cccc([N+](=O)[O-])c2)cc1OC
-logMIC: 1.36
//
CHEMICAL STRING: COc1ccc(C(=O)O)cc1OC
-logMIC: 1.06
//
CHEMICAL STRING: COc1ccc(C(=O)NN)cc1OC
-logMIC: 0.93
//
CHEMICAL STRING: COc1ccc(C(=O)Oc2cccc3cccnc23)cc1OC
-logMIC: 1.56
//
CHEMICAL STRING: COc1ccc(NC(=O)c2ccc(OC)c(OC)c2)cc1
-logMIC: 1.18
//
CHEMICAL STRING: C=CCOC(=O)c1ccc(OC)c(OC)c1
-logMIC: 1.1
//
CHEMICAL STRING: COc1ccc(C(=O)NCc2ccccc2)cc1OC
-logMIC: 1.15

Hi, could you look up -logMIC for each item in my list?
1. COc1ccc(C(=O)N2CCOCC2)cc1OC
2. CNC(=O)c1ccc(OC)c(OC)c1
3. COc1ccc(C(=O)Nc2ccc(C)cc2)cc1OC

1. 1.17
2. 1.05
3. 1.2
